Entries annotated with measured inhibition in vivo at 12.5 µmol/kg
# Test system: Female CFLP mice
# Protocol Summary: Anti-hyperglycaemic activity: subcutaneous glucose load in fasted mice
# Type: in vivo
# Experimental Parameters: Mus musculus, po; dose 12.5 μmol/kg orally; mice fasted 24 hours; glucose 1 g/kg subcutaneously; 2 hour period; compared with control given water; read-out: % REDUCTION IN AREA UNDER BLOOD GLUCOSE CURVE
State just the number; it will be interpreted in %.

# annotated cases, reported inhibition in vivo at 12.5 µmol/kg shown
molecule="COC(=O)CCSc1ccc(CC(C)NCC(O)c2cccc(C(F)(F)F)c2)cc1 (centres unmarked)" assayed_system="Female CFLP mice" observable="inhibition in vivo at 12.5 µmol/kg" result=35
molecule="CC(Cc1ccc(SCc2ccccc2)cc1)NCC(O)c1cccc(Cl)c1 (centres unmarked)" assayed_system="Female CFLP mice" observable="inhibition in vivo at 12.5 µmol/kg" result=17
molecule="CC(Cc1ccc(S(C)(=O)=O)cc1)NCC(O)c1cccc(C(F)(F)F)c1 (centres unmarked)" assayed_system="Female CFLP mice" observable="inhibition in vivo at 12.5 µmol/kg" result=48
molecule="CC(Cc1ccc(S(=O)(=O)CCCO)cc1)NCC(O)c1cccc(C(F)(F)F)c1 (centres unmarked)" assayed_system="Female CFLP mice" observable="inhibition in vivo at 12.5 µmol/kg" result=52

# next molecule below
molecule CC(Cc1ccc([S+](C)[O-])cc1)NCC(O)c1cccc(Cl)c1 (centres unmarked) , inhibition in vivo at 12.5 µmol/kg observed: 59
